These data points were gathered from ChEMBL document CHEMBL1201862.

Measured GI50 accompanies every entry in the list below.
System: DLD-1
protocol-description: NCI tumour cell line growth inhibition, 48 h
The source made the active and inactive calls. Rule as the data show it: active = GI50 up to about 1.1 µM and inactive = higher.

Would you please look over these solved cases?
                                   molecule         result_value
0             CC1=C(C)C(=O)C2=C(OCCCO2)C1=O   > 10 µM (inactive)
1       CCCCCCCCCCCCCCCc1nnc(SCC(=O)O)[nH]1   23.4 µM (inactive)
2  CCN1N=CSC12C(=O)N(c1ccccc1)C(=O)N2c1ccccc1 (configuration not stated)  > 100 µM (inactive)
3  C[C@]12CCCC(=O)C1C[C@H](C(=O)O)CC2 (some centres not stated)  > 100 µM (inactive)
4  Cc1cc2c3c(coc3c1-c1c(C)cc3c4c(coc14)C(=O)C(O)=C3C(C)C)C(=O)C(O)=C2C(C)C    4.6 µM (inactive)
5                      COc1cc2c(cc1O)C=NCC2  > 100 µM (inactive)
6  CC(=O)C1Cn2c(=O)c3cc4ccccc4cc3c(=O)n2C=C1C (configuration not stated)  > 100 µM (inactive)
7               CCOC(=O)C(=O)Nc1cccc(Cl)c1C  > 100 µM (inactive)

Task: Which GI50 value belongs to `CC(C)[C@](O)(C(=O)OCC1=CCN2CC[C@@H](O)[C@@H]12)[C@H](C)O` ?
Output: > 375 µM (inactive)

Task: Which GI50 value belongs to `CC(C)C(=O)/C=C/c1ccc(Cl)cc1` ?
Output: 11.9 µM (inactive)

Task: Which GI50 value belongs to O=C1C2C3CC4C5C3C1C5C1(SCCS1)C42 (configuration not stated) ?
Output: > 100 µM (inactive)

Task: Which GI50 value belongs to `Cc1ccccc1C(=O)Oc1ccc(O)cc1` ?
Output: > 100 µM (inactive)
